- TGT: Man(a1-3)[Man(a1-6)]Man(a1-6)[Man(a1-3)]Man(b1-4)GlcNAc(b1-4)GlcNAc
- TEST: glycan array binding signal (z-score within array); higher = stronger binding
- MEASUREMENT SETUP: glycan notation: IUPAC condensed, linker removed
About 410 targets per protein were measured; listed, in parts, are those with the strongest signals and a random draw of the rest.
PARAMETER: glycan array binding signal (z-score)
Give the value as a plain number.

See these solved cases before continuing.
{"BINDER": "StdA (Salmonella typhimurium), Q8Z3Z0 (protein) MAAAGMMYGASVFAADTTPTAGPFGSGKILFTGTITNSPCDIAPGDDAITVPFGQISYRKLNTANATTDSKPFTIHLQNCAFDPNETTIAGSAGKMSKVTVSFSGTADTSGKAYVSTGSAQHVGVQLLKGDNTSLITPNTPMPDGDAQQLQAGNNELNFFARLIALTDAATPGDVNASVTYTLKYL", "QUANTITATIVE READOUT": -0.131}
{"BINDER": "HA-61200 (Pseudomonas aeruginosa), Q02SP8_PSEAB (protein) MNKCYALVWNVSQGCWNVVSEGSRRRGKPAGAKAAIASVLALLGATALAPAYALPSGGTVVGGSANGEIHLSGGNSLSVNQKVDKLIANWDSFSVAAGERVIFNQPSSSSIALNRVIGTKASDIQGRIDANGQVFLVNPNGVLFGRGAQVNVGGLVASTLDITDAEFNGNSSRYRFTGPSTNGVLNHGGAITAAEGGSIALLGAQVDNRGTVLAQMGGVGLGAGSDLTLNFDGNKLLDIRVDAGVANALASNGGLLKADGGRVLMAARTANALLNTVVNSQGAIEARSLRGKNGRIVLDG", "QUANTITATIVE READOUT": 1.41}
{"BINDER": "SrpA (Streptococcus sanguis) (protein) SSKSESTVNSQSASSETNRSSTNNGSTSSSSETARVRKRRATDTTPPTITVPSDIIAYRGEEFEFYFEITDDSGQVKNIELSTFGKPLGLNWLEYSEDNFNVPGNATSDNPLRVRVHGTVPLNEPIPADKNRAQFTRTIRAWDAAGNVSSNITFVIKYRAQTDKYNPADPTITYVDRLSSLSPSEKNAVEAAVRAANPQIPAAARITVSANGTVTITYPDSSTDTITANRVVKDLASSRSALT", "QUANTITATIVE READOUT": 1.57}
{"BINDER": "FimA-N3 (Actinomyces oris) (protein) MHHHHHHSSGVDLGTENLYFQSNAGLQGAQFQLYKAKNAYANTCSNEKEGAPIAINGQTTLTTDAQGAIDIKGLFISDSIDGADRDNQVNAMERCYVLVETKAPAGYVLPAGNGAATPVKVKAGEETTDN", "QUANTITATIVE READOUT": -0.253}

Then this binder:
### Prompt For the binder BC2L-D C-terminal domain (Burkholderia cenocepacia), Q39MQ9_BURS3 (protein) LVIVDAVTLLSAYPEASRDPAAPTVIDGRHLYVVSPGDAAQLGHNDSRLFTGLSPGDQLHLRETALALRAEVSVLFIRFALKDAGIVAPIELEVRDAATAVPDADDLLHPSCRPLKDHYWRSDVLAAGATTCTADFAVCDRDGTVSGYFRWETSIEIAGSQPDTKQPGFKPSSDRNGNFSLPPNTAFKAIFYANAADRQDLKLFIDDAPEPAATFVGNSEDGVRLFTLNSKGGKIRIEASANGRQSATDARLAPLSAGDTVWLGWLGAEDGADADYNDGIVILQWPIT , give its reported glycan array binding signal (z-score).
### Response 3.67
